- test_details: Drug degradation in NaHCO3/1:1 of DMF:H2O solution assessed as hydrolysis after 2 hrs
- Assay type: physicochemical
- assay_setup: NaHCO3 in 1:1 DMF:H2O solution; read-out: Drug degradation
readout: degraded at 2 h (%)
Dear colleague, please return just the value in %, with no unit written.

In: For the molecule "CC(C)(C)OC(=O)N1C[C@@H](CCl)c2c1cc1c3c(cccc23)NC(=O)O1" , give its measured degraded at 2 h value.
Out: 7

* * *

- test_details: Drug degradation in NaHCO3/1:1 of DMF:H2O solution assessed as hydrolysis after 48 hrs
- Type: physicochemical
- assay_setup: NaHCO3 in 1:1 DMF:H2O solution; read-out: Drug degradation
readout: degraded at 48 h (%)
Dear colleague, please return just the value in %, with no unit written.

In: For the compound "CC(C)(C)OC(=O)N1C[C@@H](CCl)c2c1cc1c3c(cccc23)NC(=O)O1" , give its measured degraded at 48 h value.
Out: 19
